# PROCEDURE SUMMARY: yeast display, Sf9 membrane polyspecificity reagent, FACS + sequencing; frameworks hold sequencing errors
VALUE KIND: polyreactivity (PSR sort gate)

Completed entries (count: 4):
QVQLVESGGGLVQAGGSLRLSCAASGFTFPYNAMGWYRQPPGKERELVAAISRGAGRTYYADSVKGRFTISRDNAKNTVYLQMNSLKQEDTAVYYCAKAPGQDTPYPYGYWGQGTQVTVSS : high polyreactivity
QVQLVESGGGLVQAGGSLRLSCAASGSIFPQYAMGWYRQAPGKERELVAVISWSGGRTYYADSVKGRFTISRDNAKNTVYLQMNSLKPEDTAVYYCAAKYWYQRYPQSSYTRYYWGQGTQVTVSS : high polyreactivity
QVQLVESGGGLVQAGGSLRLSCAASGSIIRWNAMGWYRQAPGKERELVAAITGGGGNTYYSDSVKGRFTISRDNAKNTVYLQMNSLKPEDTAVYYCNVVYRNYRNDYWGQGTQVTVSS : high polyreactivity
QVQLVESGGGLVQAGGSLRLSCAASGSIFDPYAMGWYRQAPGKERELVAAISFSGGSTSYADSVKGRFTISRDNAKNTVYLQMNSLTPEATAVYYCAKRARFYSETDLKPYGFDYWGHGTQVTVSS : low polyreactivity

Please turn your attention to the following entry.
The sequence identified as QVQLVESGGGLFQAGGSLRLICAASGLIINGNAMGWYRQAPGKERELVADITGSSVRTYYADSVKGRFTISRDNAKNTVYLQMNSLKPEDTAVYYCAKDPDKVDYVDMDYWGQGTQVTVSS registered its polyreactivity (PSR sort gate) at low polyreactivity

###

# PROCEDURE SUMMARY: yeast display, Sf9 membrane polyspecificity reagent, FACS + sequencing; frameworks hold sequencing errors
VALUE KIND: polyreactivity (PSR sort gate)

QVQLVESGGGLVQAGGSLRLSSADSGRIFNRYAMGSYRQAPGKERELVAAITGSGGRTYYADSVKGRFTISRDNAKNTVYLQMNSLKPEDTAVYYCAATSLIYGYRTYDYWGQGTQVTVSS : high polyreactivity
QVQLVESGGGLVQAGGSLRLSCAASGSIFPYYAMGWYRQAPGKERELVAAITYIGGDTYYADSVKGRFTISRDNAKNTVYLQMNSLKPEETEVYYCNRPSSLAWPWTGSFSRYDYWGQGTQVTVSS : low polyreactivity
QVQLVESGGGLVQAGGSLRLSCAATGSTFGYYAMGWYRQSPGKERELVAAISRSGTSTYYADSVKGRFTISRDNAKNTVYLQMISLKPEDTAVYYCIRYGFNSQDYWGQGTQVTVSS : high polyreactivity
QVQLVESGGGLVQAGGSLRLSCAASGSNFSTYVMGWYRQAPGKERELVATISASDGSTYYADSVKGRFTISRDNAKNTVYLQMNSLKPEDSAVYYCAADTQEYRPTYDYWGQGTQVTVSS : low polyreactivity

###

# PROCEDURE SUMMARY: yeast display, Sf9 membrane polyspecificity reagent, FACS + sequencing; frameworks hold sequencing errors
VALUE KIND: polyreactivity (PSR sort gate)

// solved cases for polyreactivity (PSR sort gate) follow
QVQLVESGGGLVQAGGSLRLSCAASGRIYPYYDMGSYRPAPGKERELVAAITWNGGSTYYADSVKGRFTISRDYAKNTVYLQMNSLKPEDTAVYYCAVEPYYYGEDYWGQGTQVTVSS : low polyreactivity
QVQLVESGGGLVQAGGSLRLICAASGSIFGGYAMGWYIQAPGKERELVARITNGGSTYYADSVKGRFTISRDNAKNTVYLQMNSLKPEDTAVYYCNADWYAYPYGYWGQGTQVTVST : low polyreactivity
QVQLVESGGGLVQAGGSLRLSCAASGRIFYLNAMGWYRQAPGKERELVAVITGNAGSTYYADSVKGRFTISRDNAKNTVYLQMNSLKPEDTAVYYCNALRLVPWSDALYDYWGQGTQVTVSS : low polyreactivity
QVQLVESGGGLVQAGGSLRLSCAASGRIFYTNAMGCYRQAPGKERELVAAIRSGGITTYADSVKGRFTISRDNAKNTVYLQMNSLKPEDTAVYYCATRILSIYSIFGAYDYWGQGTQVTVSS : low polyreactivity

Per the records, this sequence ( QVQLVESGGGLVQAGGSLRLSCAASGSIFDIYAMGWYRQAPGKERELVAAISWNGGDTTYADSVKGRFTISRDNAKNTVYLQMNSLKPEDTAVYYCAADLGYWVADYYWGQGTQVTVSS ) has polyreactivity (PSR sort gate) equal to high polyreactivity

For QVQLVESGGGLVQAGGSLRLSCAASGYTGVYALGWYRQAPGKERELVADITSGGNTDYADSVKGRFTISRDNAKNTVYLQMNSLKPEDTAVYYCATPYRRLNTWIYDYWGQGTQVTVSS the sequence record lists polyreactivity (PSR sort gate) as high polyreactivity

The reported value for QVQLVESGGGLVQAGGSLRFSCAASGRIFTAYTMGWYRQAPGKERELVAAITRAGRTYYADSVKGRFTISRDNAKNTVYLQMNSLKPEDTAVYYCNTAPNYKYGYWGQGTQVTVSS in terms of polyreactivity (PSR sort gate) is high polyreactivity

###

# PROCEDURE SUMMARY: yeast display, Sf9 membrane polyspecificity reagent, FACS + sequencing; frameworks hold sequencing errors
VALUE KIND: polyreactivity (PSR sort gate)

QVQLVDSGGGLVQAGGSHRLSCAASGLTFRKYPMGWYRQAPGKERELVATISRNGGSTYYADSVKGRFTISRDNAKNTVYFQMNSLKPEDTAVFYCAADYYNYDYAGYGYWGQVTQVTVSS : high polyreactivity
QVQLLESGGGLVQAGGSLRLSCAASGFTFAWYAMGWYRQAPGKERELVAAISSRGSRTRYADSVKGRFTISRDNAKNTVYLQLNSLKPEDTAFYYCAKGSGARVVQVDRSGDYWGQGTQVTVSS : high polyreactivity
QVQLVESGGGLVQAGGSLRLSCAASGLTFKENVMGWYRQAPGKERELVAAISTGASTYYADSVKGRFTISRDNAKNTVYLQMNSLKPEDTAVYYCAKRVTRWYGYWGQGTQVTVSS : high polyreactivity
QVQLVESGGGLVQAGGSLRLSCAASGLIFSRNAMGRYRQAPGKERELVAAITTGGSTYYADSVKGRFTISRDNAKNTVYLQMNSLKPEDTAVYYCAAAPGYIYEYWGQGTQVTVSS : low polyreactivity
QVQLQESGGGLVQAGGSLRQSYAASGYIFPSLAKGWYRQAPGKEREFVAAIGRGSTNNYADSVKGRFTISRDNAKKTAYQQMNSLKPEDTAVYYCAAAASPLTRHLYWGQGTQVTVSS : low polyreactivity

Lab book: polyreactivity (PSR sort gate) of QVQLVESGGGLVQAGGSLRLSCAPSGSIFVYYAMGWYIQAPGKERELVAAITTSGGSTYYADSVKGRFTISRDNAKNTVYLQMNSLKPEDTAVYYCAAELLAWYWSFSVPCPYDYWGQGTQVTVSS noted as low polyreactivity

Data point: QVQLVESGGGLVQAGGSLRLSCAASGFIFYSYAMGWYRQAPGKERELVAAISRSGGITYYADSVKGRFTISRDNAKNTVYLQMNSLKPEDTAVYYCAKVGRGVSSIKDMDSWGQGTQVTVSS ; polyreactivity (PSR sort gate) = high polyreactivity

get_value(item= QVQLVESGGGLVQAGGSLRLSCAASGGTFPYSAMGWYRQAPGKERELVAAISRSGARTYYADSVKGRFTISRDNAKNTVYLQMNSLKPEDTAVYYCATDNTYGYDYWGQGTQVTVSS , readout=polyreactivity (PSR sort gate)) returns high polyreactivity

For QVQLVESGGGLVHAGGSLRLSCAASGSTLKYYAMGWYRQAPGKERELVAAITSGSSTYYADSVKGRFTISRDNAKNTVYLQMNSLKPEDTAVYYCAADYYTGYGRYYSTRFYYWGQGTQVTVSS the sequence record lists polyreactivity (PSR sort gate) as high polyreactivity

###

# PROCEDURE SUMMARY: yeast display, Sf9 membrane polyspecificity reagent, FACS + sequencing; frameworks hold sequencing errors
VALUE KIND: polyreactivity (PSR sort gate)

Worked examples follow.
QVQLVESGGGLVQAGGSLRFSCAASGSTFYGYVMGWYRQAPGKERELVAAISSSGGRTYYADSVKGRFTIARDYAKNTVYLQMNSLKPEDTAVYYCNTVQRYSTHYDYWGQGTQVTVSS : high polyreactivity
QVQLLESGGGLVQAGASLRLSCAASGSTFSYYAMGWYRQAPGKERELDAAISWRGSSTYYADSVKRRITISRDNANNTVYLQMNSLTPEATAVYYCAAGYPGRVSGYLYGTRATYYYWGQGTQVTVSS : high polyreactivity
QVQLVESGGGLVQAGGSLRLSCAASGSIFRTYAMGWYRQAHGKETELVAAITRSGGTTYYADSVKGRFTISRDNAKNTVYLQMNSLKPEDTAVYFCNAQGYWYKGRRRGDYWGQGTQVTVSS : high polyreactivity
QVQLEDSGGGLVQAGGSLRLSCAASGSTFLYYARGWYRQAPGKERELVAAITSGGSTYYADSVKGRFTISRDNAKNTVYLQMNSLKPEDTAVYYCAAASRRGYYYWGQGTQVTVSS : high polyreactivity
QVQLVESGGGLVQAGGSLRLSCAASGRTFPGNAMGGYRQAPGKERELVAAISSRGGSTYYADSVKGRFTISRDNAKNTVNLQMKSLKPEDTAVYYCNAASNYRVRRTYHGDYWGLGTQVTVSS : high polyreactivity

The value of polyreactivity (PSR sort gate) measured for the sequence QVQLVESGGGLVQAGGSLRLSCAASGRTFYNYAMGWYRQAPGKERELVASIRKNGGSTYYADSVKGRFTISRDNAKNTVYLQMNSLKPEDTAVYYCAARYWGISRIFPSKYDYWGQGTQVTVSS turned out to be high polyreactivity

Short answer for QVQLVESGGGLVQAGGSLRVSCAASGSTFVGNAMGWYRQEPGKERELVADITSGGSTNYADSVKGRFTISRDNAKNTVYLQMKSLKPEDTAVYYFAAVYLCSQRREFWGQGTQVTVSS : polyreactivity (PSR sort gate) was low polyreactivity

Value of measured polyreactivity (PSR sort gate) for the entry QVQLVESGGGLVQAGGSLRLSCAASGFTVRKYAMGWYRQAPGKERELVAAITWSGGRTYYADSVKGRFTISRDNAKNTVSLQMNSLKPEDTAVYYCAAVIQSRKYDSWGQGTQVTVSS : high polyreactivity

Measured polyreactivity (PSR sort gate) of QVQLVESGGGLVQAGGSLRISCAASGFTFRYYAMGWYRQAPGKERELVATISTGSGVSTYYADSVKGRFTISRDNAKNTVYLQMNSLKPEDTAVYYCAADYDSYYAYRTPYGYWGQGTQVTVSS : low polyreactivity

polyreactivity (PSR sort gate) in this record for QFQLVESGGGLVQAGGSLRLSCAASGFTFVSNDMGWYRQAPGKVRELVAAISQGGGSTYYADSVKGRFTISRDNAKNTVYLQMNSLKPEDNAVYYCDAEDVYFGYDYSGQGTQVTVSS : low polyreactivity
